Assignment: determine reported % Inhibition n=1 48h for the given molecules.
Tested on: G. duodenalis BRIS/91/HEPU/1279
Experiment: Primary Giardia screen at 10 µM (live-cell imaging, automated counting)
Format: cell-based, Giardia duodenalis
Conditions: 48 h, first singlicate assay
Field format: number, assumed %, no unit text.

Reported % Inhibition n=1 48h of Cc1ccc2c(c1)n(Cc1ccc(Cl)cc1)c(=O)c1nc(C(=O)NCCc3cccs3)nn12 [SN00794982] : 29.9

// field: % Inhibition n=1 48h; key: O=C(c1ccco1)N1CCC(NS(=O)(=O)c2ccc(Cl)cc2)CC1 [SN00795232] ; value = 0.0

So for Cc1noc(C)c1S(=O)(=O)N1CCC(C(=O)NCC(c2ccccc2)N(C)C)CC1 (stereo not drawn) [SN00775659] , the logged % Inhibition n=1 48h turned out to be 0.0

The molecule listed as CCCn1cc(S(=O)(=O)c2ccc(OC)cc2)c(=O)c2cc(F)c(N3CCC(C)CC3)cc21 [SN00787795] has a reported % Inhibition n=1 48h of 0.0

Just so you know, measured % Inhibition n=1 48h for CCN(CC)CCN1C(=O)C(O)=C(C(=O)c2cccs2)C1c1ccc(C)o1 (stereo not drawn) [SN00776616] came out at 15.0

Record Cc1sc2cc(-c3ccccc3)oc2c1C(=O)NCc1ccccc1 [SN00796296] , field % Inhibition n=1 48h: 20.2

% Inhibition n=1 48h in this record for COc1cc(NC(=O)N2CCN(c3cc(N(C)C)nc(C)n3)CC2)cc(OC)c1 [SN00786504] : 55.1

Looking up COC(=O)c1ccccc1NC(=O)Nc1ccc2[nH]c3c(c2c1)CN(C(C)C)CC3 [SN00798231] , I found its % Inhibition n=1 48h recorded as 4.3

Value of measured % Inhibition n=1 48h for the entry CSc1cccc(NC(=O)CN2C(=O)C(C)N=C(c3ccccc3)c3ccccc32)c1 (stereo not drawn) [SN00784896] : 0.0

The molecule listed as Cc1nc(-c2ccncc2)nc2c1CCC(=O)N2CCC1=CCCCC1 [SN00802205] shows % Inhibition n=1 48h equal to 0.0

The molecule identified as O=C(Cc1csc(Cc2ccccn2)n1)Nc1ccc2nc(N3CCOCC3)sc2c1 [SN00779496] registered its % Inhibition n=1 48h at 2.9

Item: O=C(c1nnn(-c2ccc(Cl)cc2)c1-c1cccnc1)N1CCCCC1 [SN00796543] | % Inhibition n=1 48h: 20.4

The value of % Inhibition n=1 48h measured for the molecule COc1ccc(NC(=O)N2CCC3(CC2)Nc2cc(C)ccc2-n2cccc23)cc1 [SN00793004] turned out to be 10.6

Entry under test: O=C(C(c1ccccc1)c1ccccc1)N1CCCC(c2nnc3n2CCCCC3)C1 (stereo not drawn) [SN00771924] . Its % Inhibition n=1 48h was 8.5

Summary for this molecule, CN1CCC(Oc2ncccc2C(=O)N2CCOCC2)CC1 [SN00800013] : % Inhibition n=1 48h is 15.5

Briefly, % Inhibition n=1 48h measured for c1ccc(CCN2CCC(c3c[nH]c4ncccc34)CC2)nc1 [SN00780706] : 11.5

The reported % Inhibition n=1 48h of the molecule CC(C)Cn1cc2c3c(cccc31)CN(C(=O)Cc1cccs1)CC2 [SN00798552] was 35.1

Entry Clc1ccc(Nc2nc3ccccc3n3nnnc23)cc1 [SN00784679] ; % Inhibition n=1 48h = 4.0

% Inhibition n=1 48h reported for this molecule CC(C)CCNC(=O)C1(C)CCC(=O)N1CCCN1CCN(c2cccc(Cl)c2)CC1 (stereo not drawn) [SN00784585] : 25.4

Quick note, % Inhibition n=1 48h for COc1ccc(C(=O)Nc2cc(-c3nc(C)cs3)sc2C)cc1OC [SN00798474] landed at 27.2

% Inhibition n=1 48h reading for CCC1(N2CCN(C)CC2)CCN(S(=O)(=O)c2ccccc2)C1 (stereo not drawn) [SN00802274] : 2.6

Sure, the documented % Inhibition n=1 48h for Cn1nc(C(=O)NCc2ccc3c(c2)OCO3)c2c1CCN(C(=O)C1CCCC1)C2 [SN00789838] is 7.0

Lab book: % Inhibition n=1 48h of COc1ccc(-n2ccn3c(CCC(=O)Nc4cc(C)cc(C)c4)nnc3c2=O)cc1 [SN00781639] noted as 16.2

Input O=C(c1csc(-c2ccncc2)n1)N1CCN(c2ccccc2)CC1 [SN00794830] . Output % Inhibition n=1 48h: 15.8

The reported % Inhibition n=1 48h of the molecule Cc1ccc(OCC(=O)NCC2(N3CCN(C)CC3)CCCCC2)cc1 [SN00786260] was 9.4

So for O=S(=O)(c1ccc(Br)cc1)c1nc(-c2ccccc2)oc1N1CCOCC1 [SN00785745] , the logged % Inhibition n=1 48h turned out to be 4.0

Quick note, % Inhibition n=1 48h for CCCN1CCN(C(=O)C2=C(C)C(=O)OC23CCN(S(=O)(=O)CC)CC3)CC1 [SN00791149] landed at 0.0

Please fill in: % Inhibition n=1 48h reported for CC(=O)Nc1cc(NC(=O)c2cc(-c3ccccc3)nc3c2cnn3Cc2cccnc2)ccc1F [SN00776945] = 50.1

So, Cc1sc2ncn(CCN(C)C)c(=O)c2c1C(=O)Nc1ccc(S(N)(=O)=O)nc1 [SN00803001] ? Its % Inhibition n=1 48h was 26.5

Documented % Inhibition n=1 48h of COc1ccc(S(=O)(=O)N2CCCC(C)(C(=O)NCc3ccc(F)cc3)C2)cc1 (stereo not drawn) [SN00795932] : 8.4

response.value for O=C(CCC(=O)N1CCCC1c1nc2ccccc2[nH]1)c1ccccc1 (stereo not drawn) [SN00776900] (field: % Inhibition n=1 48h) = 28.7

Note to self: % Inhibition n=1 48h recorded for CC(C(=O)NC1CCCCCC1)n1c(=O)c2cccn2c2cccnc21 (stereo not drawn) [SN00787599] was 8.7

Given item CCCNC(=O)N1CCN(c2nc3ccccc3n3cccc23)CC1 [SN00793136] , the value recorded as its % Inhibition n=1 48h is 44.8

For reference, reported % Inhibition n=1 48h for O=C(NCCc1ccccc1)c1ccc(Nc2nc3ccccc3n3nnnc23)cc1 [SN00784739] stands at 8.5

// field: % Inhibition n=1 48h; key: CCCn1cc(S(=O)(=O)c2ccc(Cl)cc2)c(=O)c2cc(F)c(N3CCOCC3)cc21 [SN00787800] ; value = 0.0

Entry under test: COc1ccc(-c2cc(C(=O)N(C)Cc3ccco3)[nH]n2)cc1 [SN00788220] . Its % Inhibition n=1 48h was 44.3
